# Assay Overview: Phase I study CXR1002-001: plasma pharmacokinetics (LC-MS/MS)
# Format: in vivo, human
# Applied Conditions: human, plasma, po, 1000 mg, Patient 042, 1000 mg weekly oral dose, Time 3 hr; read-out: Concentration (plasma level)
Property Label: concentration at 3 hr (µM)

compound="O=C(O)C(F)(F)C(F)(F)C(F)(F)C(F)(F)C(F)(F)C(F)(F)C(F)(F)F [CXR1002]" value_observed=359

---

# Assay Overview: Phase I study CXR1002-001: plasma pharmacokinetics (LC-MS/MS)
# Assay type: in vivo, human
# Applied Conditions: human, plasma, oral, 1200 mg, Patient 034, 1200 mg, person, plasma, 192 hr (Day 9); read-out: Concentration
# Excerpt: PK samples, PD (fasting) samples, blood glucose, and blood triglyceride samples, were taken over a 6-week period. Dose limiting toxicity (DLT) will be based on the toxicity assessments over the first 3-week period of the repeat dosing schedule. […]
Property Label: concentration at 192 hr (µM)

molecule="O=C(O)C(F)(F)C(F)(F)C(F)(F)C(F)(F)C(F)(F)C(F)(F)C(F)(F)F [CXR1002]" value_observed=722
